test: Apparent permeability in MDCK cells; type: ADME, cell-based, Canis lupus familiaris; conditions: dog
property-measured: Papp (×10⁻⁶ cm/s)

>  <smiles-repr>
N#Cc1ccc2ncnc(N[C@H]3CC[C@H](N4CCOCC4)CC3)c2c1

>  <unit-abbreviation>
×10⁻⁶ cm/s

>  <observed-value>
41

$$$$
>  <smiles-repr>
CNCCCCc1c(-c2cc(C)cc(C)c2)cnc2ccc(-c3cncc(O)c3)cc12

>  <unit-abbreviation>
×10⁻⁶ cm/s

>  <observed-value>
11

$$$$

* * *

test system: Rattus norvegicus; assay: Terminal plasma concentration in Lewis rat at 3 mg/kg, po administered once daily; type: ADME, organism-based; conditions: in vivo, read-out: Cp(T)

>  <smiles-repr>
N#Cc1ccc2ncnc(N[C@H]3CC[C@H](N4CCOCC4)CC3)c2c1

>  <concentration>
5.7 µM

$$$$
>  <smiles-repr>
C[C@@H]1C[C@H]2[C@@H]3CCC4=CC(=O)C=C[C@]4(C)[C@@]3(F)[C@@H](O)C[C@]2(C)[C@@]1(O)C(=O)CO

>  <concentration>
10 µM

$$$$

* * *

assay: Half life in rat; format: ADME; conditions: in vivo

>  <smiles-repr>
N#Cc1ccc2ncnc(N[C@H]3CC[C@H](N4CCOCC4)CC3)c2c1

>  <unit-abbreviation>
h

>  <half-life>
1.3

$$$$

* * *

system: Rattus norvegicus; experiment: Terminal plasma concentration in Lewis rat at 100 mg/kg, po administered once daily; assay type: ADME, organism-based; conditions: in vivo, read-out: Cp(T)
property-measured: concentration (µM)

>  <smiles-repr>
N#Cc1ccc2ncnc(N[C@H]3CC[C@H](N4CCOCC4)CC3)c2c1

>  <test-target>
Rattus norvegicus

>  <unit-abbreviation>
µM

>  <observed-value>
112

$$$$

* * *

assay: Oral bioavailability in rat; assay type: ADME, organism-based; conditions: in vivo

>  <smiles-repr>
N#Cc1ccc2ncnc(N[C@H]3CC[C@H](N4CCOCC4)CC3)c2c1

>  <bioavailability>
73%

$$$$

* * *

target: Interleukin-1 receptor-associated kinase 4 (Homo sapiens, UniProt Q9NWZ3); test: Inhibition of recombinant human full length GST tagged IRAK4 expressed in baculovirus infected Sf9 cells using RP7030 peptide as substrate after 30 mins in presence of ATP by fluorescence polarization assay
Sequence (Q9NWZ3 whole entry): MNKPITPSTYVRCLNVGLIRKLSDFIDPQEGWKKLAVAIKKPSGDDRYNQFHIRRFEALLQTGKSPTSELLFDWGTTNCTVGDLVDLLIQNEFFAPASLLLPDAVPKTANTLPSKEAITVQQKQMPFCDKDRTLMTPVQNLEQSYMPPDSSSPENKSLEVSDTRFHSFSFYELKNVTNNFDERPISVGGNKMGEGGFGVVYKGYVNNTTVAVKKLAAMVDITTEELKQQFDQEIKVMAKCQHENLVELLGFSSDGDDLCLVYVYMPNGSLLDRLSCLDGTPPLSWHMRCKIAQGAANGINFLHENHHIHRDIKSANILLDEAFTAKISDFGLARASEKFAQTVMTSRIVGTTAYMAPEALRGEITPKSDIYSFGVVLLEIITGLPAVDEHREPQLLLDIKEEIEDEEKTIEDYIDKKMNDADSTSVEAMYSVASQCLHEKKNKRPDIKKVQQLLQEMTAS
pIC50: −log10 of the molar value.

>  <smiles-repr>
COc1ccc2ncnc(N[C@H]3CC[C@H](N(C)C)CC3)c2c1

>  <test-target>
Interleukin-1 receptor-associated kinase 4 (Homo sapiens, UniProt Q9NWZ3)

>  <pIC50>
7.80

$$$$
>  <smiles-repr>
N#Cc1ccc2ncnc(N[C@H]3CC[C@H](N4CCOCC4)CC3)c2c1

>  <test-target>
Interleukin-1 receptor-associated kinase 4 (Homo sapiens, UniProt Q9NWZ3)

>  <pIC50>
8.15

$$$$
>  <smiles-repr>
CN(C)[C@H]1CC[C@H](Oc2ncnc3ccc([N+](=O)[O-])cc23)CC1

>  <test-target>
Interleukin-1 receptor-associated kinase 4 (Homo sapiens, UniProt Q9NWZ3)

>  <pIC50>
7.24

$$$$
>  <smiles-repr>
CCc1ccc2ncnc(N[C@H]3CC[C@H](N(C)C)CC3)c2c1

>  <test-target>
Interleukin-1 receptor-associated kinase 4 (Homo sapiens, UniProt Q9NWZ3)

>  <pIC50>
7.77

$$$$
>  <smiles-repr>
CN(C)[C@H]1CC[C@H](Nc2ncnc3ccc(Br)cc23)CC1

>  <test-target>
Interleukin-1 receptor-associated kinase 4 (Homo sapiens, UniProt Q9NWZ3)

>  <pIC50>
8.00

$$$$
>  <smiles-repr>
CC(C)c1ccc2ncnc(N[C@H]3CC[C@H](N(C)C)CC3)c2c1

>  <test-target>
Interleukin-1 receptor-associated kinase 4 (Homo sapiens, UniProt Q9NWZ3)

>  <pIC50>
7.80

$$$$
>  <smiles-repr>
N#Cc1ccc2ncnc(N[C@H]3CC[C@H](N4CCC4)CC3)c2c1

>  <test-target>
Interleukin-1 receptor-associated kinase 4 (Homo sapiens, UniProt Q9NWZ3)

>  <pIC50>
7.46

$$$$
>  <smiles-repr>
CN(C)[C@H]1CC[C@H](Nc2ncnc3ccc(C4CC4)cc23)CC1

>  <test-target>
Interleukin-1 receptor-associated kinase 4 (Homo sapiens, UniProt Q9NWZ3)

>  <pIC50>
7.92

$$$$
>  <smiles-repr>
N#Cc1ccc2ncnc(N[C@H]3CC[C@H](N)CC3)c2c1

>  <test-target>
Interleukin-1 receptor-associated kinase 4 (Homo sapiens, UniProt Q9NWZ3)

>  <pIC50>
7.49

$$$$
